Molecular target: T1, 4H3413-AA
T1 chain: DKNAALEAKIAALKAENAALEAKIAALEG
Test: two-hybrid library CCmax;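 note: natural log of median RNA to DNA barcode read ratio; higher means stronger binding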
Conditions: mean of both orientations
Please note: interaction score exactly at -1 is false (0). Only values below -1 get true (1).

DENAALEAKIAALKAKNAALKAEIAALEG [4H1401-AA] = false (0)

Prompt line: Strictly below -1: is that where interaction score of DKNAALEAKIAALEAKNAALEAEIAALKG [4H3378-AA] sits?
Response line: true (1)

Prompt line: Strictly below -1: is that where interaction score of DKIAALEAKNAALKAKNAALKAEIAALEG [4H2553-AA] sits?
Response line: true (1)

Prompt line: Strictly below -1: is that where interaction score of DKNAALEAEIAALKAENAALKAEIAALKG [4H3162-AA] sits?
Response line: true (1)

Prompt line: Strictly below -1: is that where interaction score of DKIAALKAKIAALKAENAALKAENAALEG [4H2907-AA] sits?
Response line: true (1)

Prompt line: Strictly below -1: is that where interaction score of DKNAALEAEIAALEAKNAALKAKIAALEG [4H3133-AA] sits?
Response line: false (0)

Prompt line: Strictly below -1: is that where interaction score of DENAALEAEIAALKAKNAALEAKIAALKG [4H1142-AA] sits?
Response line: false (0)

Prompt line: Strictly below -1: is that where interaction score of DKIAALKAEIAALEAKNAALEAENAALEG [4H2611-AA] sits?
Response line: true (1)

Prompt line: Strictly below -1: is that where interaction score of DKIAALKAKNAALKAKIAALKAKNAALKG [4H3056-AA] sits?
Response line: false (0)

Prompt line: Strictly below -1: is that where interaction score of DENAALEAKIAALKAKIAALKAENAALKG [4H1388-AA] sits?
Response line: true (1)
